tested on: multidrug-resistant KB-C1 cells; test: Inhibition of tumor cell growth, SRB-assay, KB-C1; type: cell-based, human; conditions: Table 4, 72 hours, read-out: In vitro-activity against human tumor cell lines, KB-C1
property: log10(IC50) (log10 of the value in nM)
Base-10 log of IC50, unit nM.

The following molecules have reported results that may help.
molecule	log10(IC50)
CC(=NNc1nc2ccccc2n1C)c1cccc(C)n1 [Id-10]	3.26
CC(=NNc1nc2ccccc2n1C)c1ncccc1Cl [Id-3]	2.48
CC(=NNc1nc2ccccc2n1C)c1cccc(N(C)C)n1 [Id-13]	4.47
CC(=NNc1nc2ccccc2n1C)c1ncccc1-c1ccccc1 [Id-14]	3.15
CC(=NNc1nc2ccccc2n1C)c1ncccc1N(C)C [Id-11]	1.78

For reference, reported log10(IC50) for CC(=NNc1nc2ccccc2n1C)c1cc(C)ccn1 [Id-8] stands at 2.00

For reference, reported log10(IC50) for CC(=NNc1nc2ccccc2n1C)c1cc(N(C)C)ccn1 [Id-12] stands at 2.91

For reference, reported log10(IC50) for COc1ccnc(C(C)=NNc2nc3ccccc3n2C)c1 [Id-2] stands at 2.20

For reference, reported log10(IC50) for CC(=NNc1nc2ccccc2n1C)c1cccc(Cl)n1 [Id-5] stands at 1.48

For reference, reported log10(IC50) for CC(=NNc1nc2ccccc2n1C)c1cccc(Br)n1 [Id-6] stands at 3.33

For reference, reported log10(IC50) for CC(=NNc1nc2ccccc2n1C)c1ncccc1C [Id-7] stands at 2.20

For reference, reported log10(IC50) for CC(=NNc1nc2ccccc2n1C)c1cc(-c2ccccc2)ccn1 [Id-15] stands at 2.36

For reference, reported log10(IC50) for CC(=NNc1nc2ccccc2n1C)c1ccc(-c2ccccc2)cn1 [Id-16] stands at 2.26
